assay: Trypan blue exclusion viability assay in CEM cells; format: cell-based; settings: human, read-out: Cytotoxicity IC50 in CEM cells by trypan blue exclusion
measurementLabel: IC50 at 24 h

# input molecule: COCCNC(=O)COC(=O)c1c2c(nc3ccccc13)/C(=C/c1ccc(O)cc1)CCC2 [1H4] ; wanted: its IC50 at 24 h
> 100 µM
